System: U251 CNS
Experiment: NCI tumour cell line growth inhibition, 48 h
Readout Name: TGI

In [3]: df
Out[3]:
                                   compound  measured_value
0  COc1ccc(/C=C2\CN(C)Cc3c2[nH]c(=O)c(C#N)c3-c2ccc(OC)cc2)cc1        > 100 µM

Moving on to another compound below.
// recorded TGI for Cn1c(=O)oc2cc(C3CCC(=O)N3Cc3ccc(Cl)cc3)ccc21 (stereo not drawn) : > 100 µM

====

Test system: MCF7 breast
Assay: NCI tumour cell line growth inhibition, 48 h
Overview of reported TGI across a group of compounds:
// note: answer is a bare numeric in µM

Below, each entry is followed by its recorded TGI result.
>>> df
                                   compound  readout_name  measured_value
0  CCC(=O)c1ccc2c(c1)N(CCCN1CCN(CCO)CC1)c1ccccc1S2           TGI            26.9
1  CCOC(=O)C1=C(c2ccccc2)N(c2ccc(OC)cc2)[C@]2(C#N)C(O)=C(Cl)C(Cl)=C(O)[C@]12C#N           TGI            36.1

// recorded TGI for CCCCCCCCC/C=C1\CC(CO)(COC(=O)c2ccccc2)OC1=O (configuration not stated) : 48.9
